meta.source: ChEMBL document CHEMBL1133444

STUDY TARGET: Adenosine receptor A1 (Rattus norvegicus);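 also: displacement of [3H]DPCPX binding from rat cortical membranes in the absence of GTP, KH giving affinity for the high-affinity receptor state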
KH vs 60 nM: at or above is satisfied, below is not satisfied.

{"columns": ["STRUCTURE NOTATION", "ANSWER LABEL"],
 "data": [
  ["OC[C@H]1O[C@@H](n2cnc3c(NC4CCCCCCC4)nc(Cl)nc32)C[C@@H]1O", "not satisfied"],
  ["OC[C@H]1O[C@@H](n2cnc3c(NC4CCCCCC4)ncnc32)C[C@@H]1O", "satisfied"],
  ["OC[C@H]1O[C@@H](n2cnc3c(NC4CCC4)ncnc32)C[C@@H]1O", "satisfied"],
  ["OC[C@H]1O[C@@H](n2cnc3c(NC4CCCCCC4)nc(Cl)nc32)C[C@@H]1O", "not satisfied"],
  ["OC[C@H]1O[C@@H](n2cnc3c(NC4CCC4)nc(Cl)nc32)C[C@@H]1O", "not satisfied"],
  ["OC[C@H]1O[C@@H](n2cnc3c(NC4CCCC4)ncnc32)C[C@@H]1O", "not satisfied"],
  ["OC[C@H]1O[C@@H](n2cnc3c(NC4CCCC4)nc(Cl)nc32)C[C@@H]1O", "not satisfied"],
  ["OC[C@H]1O[C@@H](n2cnc3c(NC4CCCCC4)ncnc32)C[C@@H]1O", "satisfied"],
  ["OC[C@H]1O[C@@H](n2cnc3c(NC4CC4)nc(Cl)nc32)C[C@@H]1O", "satisfied"],
  ["OC[C@H]1O[C@@H](n2cnc3c(NC4CCCCCCC4)ncnc32)C[C@@H]1O", "satisfied"]
]}
